Target: CD34 (mouse orbital fibroblasts) (Mus musculus) (UniProt Q64314)
Sequence: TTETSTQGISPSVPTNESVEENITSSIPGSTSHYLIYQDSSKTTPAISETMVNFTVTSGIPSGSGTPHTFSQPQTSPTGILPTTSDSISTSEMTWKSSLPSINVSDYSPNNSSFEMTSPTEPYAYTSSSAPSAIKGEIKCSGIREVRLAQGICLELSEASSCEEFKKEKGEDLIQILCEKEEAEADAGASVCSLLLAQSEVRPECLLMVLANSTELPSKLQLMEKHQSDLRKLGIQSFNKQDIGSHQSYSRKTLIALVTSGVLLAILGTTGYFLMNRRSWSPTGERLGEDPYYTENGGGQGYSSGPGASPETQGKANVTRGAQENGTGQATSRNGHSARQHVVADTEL
Experiment: flow cytometry
Conditions: whole-cell binding to mouse orbital fibroblasts, 4 C, 1 h, SELEX binding buffer: DPBS, 4.5 mg/mL D-glucose, 5 mM MgCl2, 1 mg/mL BSA, 1 mg/mL yeast tRNA, flow cytometry at 4 C, pull-down lysis buffer 5 mM …
ATTRIBUTE MEASURED: pKd
Schema: pKd number; meaning minus log10 of the concentration expressed in molar units.

stdin: For CAGCACCGTCAACTGAATCTCATTGCGGCGTCCGGCTGGACGTTATTGTTGGAACCGTGATGCGATGGAGATGT [CD34 Apt (FAM)] , what is its reported pKd?
stdout: 7.04
